Biological target: rat TAAR1 (Rattus norvegicus (Rat), UniProt Q923Y9)
Sequence (Q923Y9 whole entry): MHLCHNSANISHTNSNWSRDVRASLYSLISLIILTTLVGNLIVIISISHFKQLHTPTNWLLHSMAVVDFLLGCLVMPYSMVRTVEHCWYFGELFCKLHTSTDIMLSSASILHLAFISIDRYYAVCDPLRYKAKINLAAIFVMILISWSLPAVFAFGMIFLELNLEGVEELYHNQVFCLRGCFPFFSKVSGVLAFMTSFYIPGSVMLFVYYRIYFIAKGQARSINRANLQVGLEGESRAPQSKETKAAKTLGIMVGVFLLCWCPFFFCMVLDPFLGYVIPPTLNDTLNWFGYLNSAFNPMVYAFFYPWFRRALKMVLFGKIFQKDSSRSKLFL
Experiment: Radioligand binding assay on rat TAAR1
Details: rat TAAR1, membranes of stably transfected HEK-293 cells; second value of cell mouse/rat
Where a name gives a salt, the structure may show the parent alone.
Each entry below carries its reported Ki.
Answer with a number only, understood to be in µM.

// below: answered molecules
>  <molecule>
NC1=N[C@@H](CCc2ccc(Nc3ccncn3)cc2)CO1 [Example 35, hydrochloride]

>  <measuredParameter>
Ki

>  <quantitativeReadout>
0.0023

$$$$
>  <molecule>
NC1=N[C@@H](CCc2ccc(NC(c3ccc(Br)cn3)C(F)(F)F)cc2)CO1 (some centres unmarked)

>  <measuredParameter>
Ki

>  <quantitativeReadout>
0.0132

$$$$
>  <molecule>
Cc1cccc(Nc2ccc(CC[C@H]3COC(N)=N3)cc2)n1

>  <measuredParameter>
Ki

>  <quantitativeReadout>
0.0007

$$$$

Recorded result, NC1=N[C@@H](CCc2ccc(N[C@H](c3ccc(Cl)cc3)C(F)(F)F)cc2)CO1 , Ki: 0.0032

Recorded result, CCC(CC)c1cnc(Nc2ccc(CC[C@H]3COC(N)=N3)cc2)nc1 , Ki: 0.0001

----------
Target: rat TAAR1 (Rattus norvegicus (Rat))
Assay: Radioligand binding assay on rat TAAR1
Conditions: rat TAAR1, membranes of stably transfected HEK-293 cells; second value of cell mouse/rat
Each entry below carries its reported Ki.
Answer with a number only, understood to be in µM.

// below: answered compounds
>  <compound>
CS(=O)(=O)c1cnc(Nc2ccc(CC[C@H]3COC(N)=N3)cc2)nc1

>  <quantitativeReadout>
0.0146

$$$$
>  <compound>
NC1=N[C@@H](CCc2ccc(Nc3nccc(C(F)(F)F)n3)cc2)CO1

>  <quantitativeReadout>
0.001

$$$$

Recorded result, Cc1ccc(Nc2ccc(CC[C@H]3COC(N)=N3)cc2)cc1 , Ki: 0.0001

Recorded result, NC1=N[C@@H](CCc2ccc(Nc3ccc(Cl)c(Cl)c3)cc2)CO1 , Ki: 0.0001

Recorded result, NC1=N[C@@H](CCc2ccc(NC(c3cccc(F)c3)C(F)(F)F)cc2)CO1 (stereo partly drawn) , Ki: 0.0064

Recorded result, NC1=N[C@@H](CCc2ccc(NC(c3ccc(Cl)cn3)C(F)(F)F)cc2)CO1 (stereo partly drawn) , Ki: 0.0265

Recorded result, CCOc1cnc(Nc2ccc(CC[C@H]3COC(N)=N3)cc2)nc1 , Ki: 0.0083

Recorded result, Cc1cc(Nc2ccc(CC[C@H]3COC(N)=N3)cc2)ncn1 , Ki: 0.0013

Recorded result, Cc1nccc(Nc2ccc(CC[C@H]3COC(N)=N3)cc2)n1 , Ki: 0.0026

----------
Biological target: rat TAAR1 (Rattus norvegicus (Rat))
Experiment: Radioligand binding assay on rat TAAR1
Settings: rat TAAR1, membranes of stably transfected HEK-293 cells; second value of cell mouse/rat
measuredParameter: log10(Ki) (log10 of the value in µM)
Transform log10 | Measure Ki | Unit µM

// below: answered compounds
>  <compound>
CCc1cnc(Nc2ccc(CC[C@H]3COC(N)=N3)cc2)nc1 [Example 37]

>  <log10(Ki)>
-2.92

$$$$
>  <compound>
N#Cc1cnc(Nc2ccc(CC[C@H]3COC(N)=N3)cc2)nc1 [Example 59]

>  <log10(Ki)>
-3.10

$$$$
>  <compound>
NC1=N[C@@H](CCc2ccc(Nc3ncc(OCC(F)(F)F)cn3)cc2)CO1 [Example 73]

>  <log10(Ki)>
-2.55

$$$$
>  <compound>
NC1=N[C@@H](CCc2ccc(Nc3cc(Cl)ncn3)cc2)CO1 [Example 32]

>  <log10(Ki)>
-3.10

$$$$
>  <compound>
NC1=N[C@@H](CCc2ccc(Nc3cc(F)ccn3)cc2)CO1 [Example 22]

>  <log10(Ki)>
-3.70

$$$$

Here NC1=N[C@@H](CCc2ccc(Nc3ccccc3)cc2)CO1 [Example 13] was tested on rat TAAR1 (Rattus norvegicus (Rat)), and its log10(Ki) came to -4.00

Here Cc1cc(Nc2ccc(CC[C@H]3COC(N)=N3)cc2)c2ncccc2c1 [Example 4] was tested on rat TAAR1 (Rattus norvegicus (Rat)), and its log10(Ki) came to -3.22

Here N#Cc1cnc(Nc2ccc(CC[C@H]3COC(N)=N3)cc2)cn1 [Example 39] was tested on rat TAAR1 (Rattus norvegicus (Rat)), and its log10(Ki) came to -2.37

Here NC1=N[C@@H](CCc2ccc(Nc3ncc(Cl)cn3)nc2)CO1 [Example 71] was tested on rat TAAR1 (Rattus norvegicus (Rat)), and its log10(Ki) came to -2.96

Here NC1=N[C@@H](CCc2ccc(Nc3ncc(Br)cn3)cc2)CO1 [Example 51] was tested on rat TAAR1 (Rattus norvegicus (Rat)), and its log10(Ki) came to -3.40

Here CCC(=O)c1cnc(Nc2ccc(CC[C@H]3COC(N)=N3)cc2)nc1 [Example 53] was tested on rat TAAR1 (Rattus norvegicus (Rat)), and its log10(Ki) came to -1.58

Here NC1=N[C@@H](CCc2ccc(Nc3cccc(C(F)(F)F)n3)cc2)CO1 [Example 26] was tested on rat TAAR1 (Rattus norvegicus (Rat)), and its log10(Ki) came to -3.10

Here CC(=O)c1cnc(Nc2ccc(CC[C@H]3COC(N)=N3)cc2)nc1 [Example 47] was tested on rat TAAR1 (Rattus norvegicus (Rat)), and its log10(Ki) came to -2.62

Here Cc1ccnc(Nc2ccc(CC[C@H]3COC(N)=N3)cc2)n1 [Example 48] was tested on rat TAAR1 (Rattus norvegicus (Rat)), and its log10(Ki) came to -2.92

Here NC1=N[C@@H](CCc2ccc(N[C@@H](c3ccc(Cl)cc3)C(F)(F)F)cc2)CO1 [Example 64] was tested on rat TAAR1 (Rattus norvegicus (Rat)), and its log10(Ki) came to -2.70

Here NC1=N[C@@H](CCc2ccc(Nc3ncc(C(F)(F)F)cn3)cc2)CO1 [Example 56] was tested on rat TAAR1 (Rattus norvegicus (Rat)), and its log10(Ki) came to -2.41

Here NC1=N[C@@H](CCc2ccc(Nc3cc(C(F)(F)F)ncn3)cc2)CO1 [Example 17] was tested on rat TAAR1 (Rattus norvegicus (Rat)), and its log10(Ki) came to -2.92

Here N#Cc1cncc(Nc2ccc(CC[C@H]3COC(N)=N3)cc2)n1 [Example 31] was tested on rat TAAR1 (Rattus norvegicus (Rat)), and its log10(Ki) came to -2.23
